Hello, the source for this data is PubChem BioAssay, in case you need it.

assay: viability loss with induced miR-34 in A549 – imaging, A549 dox-inducible miR-34, nuclei and caspase counts, primary screen (AID 1347080); details: A549 miR-34 inducible, Hoechst nuclei count, 48 h; stronger effect = lower value; cell number ratio, induced over uninduced; also: test concentration not given here
Exercise: for every item that follows, state its recorded fold change.
Answer as a number with no unit attached.

Given COc1ccc(-c2ncnc3sc(C)c(C)c23)c2cccnc12 , respond with its fold change.
0.949

Given COc1c2c(nc3ccccc13)OC(C(C)(O)CO)C2 (stereo unspecified) , respond with its fold change.
0.919

Given O=C(NOCC1CC1)c1cc(Br)c(F)c(F)c1Nc1ccc(I)cc1Cl , respond with its fold change.
1.16

Given COc1cc(N=C(N)N=C(N)N)cc(OC)c1 , respond with its fold change.
0.901

Given Cc1cc(=O)oc2c(C=O)c(O)ccc12 , respond with its fold change.
0.88

Given CCCc1cn(CC2CCCN(C(=O)c3nc4ncccn4n3)C2)nn1 (stereo unspecified) , respond with its fold change.
0.866

Given COc1cc2c(cc1Cc1cccc(Cl)c1F)c(=O)c(C(=O)O)cn2C(CO)C(C)C (stereo unspecified) , respond with its fold change.
0.611

Given COc1cc2c(cc1-c1c(C)noc1C)ncc1[nH]c(=O)n(C(C)c3ccccn3)c12 (stereo unspecified) , respond with its fold change.
0.947

Given CCCCCCCCCCCCCCCCOCC(CO)OC(C)=O (stereo unspecified) , respond with its fold change.
0.942

Given N[C@@H](Cc1ccc(O)c(I)c1)C(=O)O , respond with its fold change.
1.11

Given FC(F)Oc1ccc(-c2nc3c(cnn3Cc3cccs3)[nH]2)cc1 , respond with its fold change.
0.844

---

Exercise: for every item that follows, state its recorded z-score.
experiment: galactose survival enhancers in mitochondrial complex I cybrids – cell-based, galactose medium, ATP luminescence, primary screen (AID 1645843); details: complex I mutant cybrid cells, 72 h, stronger effect = higher value;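 also: positive z means more ATP and so rescue of galactose-driven cybrid death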
Answer as a number with no unit attached.

Given CC(=O)O[C@H]1CC2(C)[C@@H](C[C@@H](O)[C@H]3[C@@]4(C)CC[C@@H](O)[C@@H](C)[C@@H]4CC[C@@]32C)C1=C(CCC=C(C)C)C(=O)O (some centres undefined) , respond with its z-score.
4.71

Given CC(=O)O[C@]1(C(C)=O)CCC2C3C=C(C)C4=CC(=O)CC[C@]4(C)C3CC[C@@]21C (some centres undefined) , respond with its z-score.
-0.29

Given CN1CCN(NC(=S)Nc2ccc(S(N)(=O)=O)cc2)CC1 , respond with its z-score.
0.425

Given Cc1cc(NC(=O)Cn2cc(-c3cccc4cccnc34)cn2)n(C)n1 , respond with its z-score.
-0.585

---

assay: viability loss with induced miR-34 in A549 – imaging, A549 dox-inducible miR-34, nuclei and caspase counts, primary screen (AID 1347080); details: A549 miR-34 inducible, Hoechst nuclei count, 48 h; measured here: total cells without miR-34 induction; also: test concentration not given here
Peptide text beside a SMILES is read from it. * marks the point of attachment. Boc = CC(C)(C)OC(=O)*
PROPERTY_MEASURED: cell count
Answer as a number with no unit attached.

Given CC(C)(F)CC(NC(c1ccc(-c2ccc(S(C)(=O)=O)cc2)cc1)C(F)(F)F)C(=O)NC1(C#N)CC1 (stereo not drawn) , respond with its cell count.
8500

Given CCN1CCN(Cc2ccc(-c3cc4c(NC(C)c5ccccc5)ncnc4[nH]3)cc2)CC1 (stereo not drawn) , respond with its cell count.
3280

Given CC(C)n1cc(-c2cc(C(=O)N(C)Cc3cccnc3)c3cc(F)ccc3n2)cn1 , respond with its cell count.
10500

Given CCn1cnc(NC(=O)N(C)Cc2cccc3ncccc23)n1 , respond with its cell count.
9840

Given Cc1ccc2nc(C3CCCN3c3ncc(C)c(-c4cnn(C)c4)n3)[nH]c2c1 (stereo not drawn) , respond with its cell count.
8770

Given COC1=C(OC)C(=O)c2ccccc2C1=O , respond with its cell count.
890

Given Nc1nc2c(ncn2C2OC(CO)C(O)C2O)c(=O)[nH]1 (stereo not drawn) , respond with its cell count.
9140

Given CC1COc2c(C3(N)CC3)c(F)cc3c(=O)c(C(=O)O)cn1c23 (stereo not drawn) , respond with its cell count.
10300

Given CN1CCN(Cc2ccc3sccc3c2)CC1CCO (stereo not drawn) , respond with its cell count.
9580

Given O=C(O)C1(O)C[C@H](O)C(O)[C@@H](O)C1 (stereo partly drawn) , respond with its cell count.
9680

Given O=C1OC(C(O)CO)C(O)=C1O (stereo not drawn) , respond with its cell count.
7850

Given C=CC1CN2CC[C@H]1C[C@H]2C(O)c1ccnc2ccc(OC)cc12 (stereo partly drawn) , respond with its cell count.
8420

Given Cc1c(C(=O)Nc2ccc(N3CC(C)OC(C)C3)nc2)cccc1-c1ccc(OC(F)(F)F)cc1 (stereo not drawn) , respond with its cell count.
6520

Given Cc1ccc(NC(=O)C2CC23CCCCC3)cn1 (stereo not drawn) , respond with its cell count.
9300

Given O[Si](CCCN1CCCCC1)(c1ccc(F)cc1)C1CCCCC1 (stereo not drawn) , respond with its cell count.
8690

Given COc1ccc(-c2ncnc3sc(C)c(C)c23)c2cccnc12 , respond with its cell count.
7760

Given Nc1nc(SCc2ccc([N+](=O)[O-])cc2)c2ncn([C@@H]3O[C@H](CO)[C@H](O)C3O)c2n1 (stereo partly drawn) , respond with its cell count.
9310

Given CC(C)[C@H](NC(=O)CNC(=O)OC(C)(C)C)C(=O)N[C@H](C=O)C(C)C (Boc-Gly-Val-Val-aldehyde) , respond with its cell count.
6410

Given OCC1NCC(O)C(O)C1O (stereo not drawn) , respond with its cell count.
10700

Given CC(=O)/C(C)=N/O , respond with its cell count.
9340

Given C[C@H](Cn1cnc2c(N)ncnc21)OCP(=O)(O)O , respond with its cell count.
9660

Given CC1(C)S[C@H]2C(NC(=O)C(N)c3ccccc3)C(=O)N2C1C(=O)O (stereo partly drawn) , respond with its cell count.
8910

Given CN1[C@@H]2CC(OC(=O)C(CO)c3ccccc3)C[C@H]1[C@@H]1O[C@H]12 (stereo partly drawn) , respond with its cell count.
10000

Given CCC1=CC2CN(C1)Cc1c([nH]c3ccccc13)[C@@](C(=O)OC)(c1cc3c(cc1OC)N(C)[C@@H]1[C@@]34CCN3CC=C[C@@](CC)(C(OC(C)=O)[C@]1(O)C(=O)OC)[C@@H]34)C2 (stereo partly drawn) , respond with its cell count.
1620

Given CC(C=CC(=O)NO)=CC(C)C(=O)c1ccc(N(C)C)cc1 (stereo not drawn) , respond with its cell count.
918

Given CN(C)c1ccc(N=Nc2ccccc2C(=O)O)cc1 , respond with its cell count.
3400

Given COC1OC2O[C@@]3(C)CCC4C(C)CCC(C1C)[C@@]24OO3 (stereo partly drawn) , respond with its cell count.
9650

Given Nc1ncnc2c1c(I)cn2[C@@H]1O[C@H](CO)[C@H](O)C1O (stereo partly drawn) , respond with its cell count.
1240

Given CC(=O)O[C@]1(C(C)=O)CC[C@H]2[C@@H]3C=C(Cl)C4=CC(=O)C5CC5[C@]4(C)[C@H]3CC[C@@]21C (stereo partly drawn) , respond with its cell count.
9590

Given COCCOc1cc2ncnc(Cl)c2cc1OCCOC , respond with its cell count.
8960

Given CC(C)=CCC/C(C)=C/CC1=C(C)C(=O)c2ccccc2C1=O , respond with its cell count.
6900

Given O=C(C=CC=Cc1ccc2c(c1)OCO2)N1CCCCC1 , respond with its cell count.
9240

Given COc1ccc(C(=O)c2ccc(C)cc2)c(O)c1 , respond with its cell count.
5510

Given CC(=O)Nc1cccc(-c2nn(CC(=O)Nc3cnn(C)n3)c3ccccc23)c1 , respond with its cell count.
9550

Given CC(=CC(=O)Nc1ccccc1C(=O)O)c1ccc2ccccc2c1 , respond with its cell count.
7430

Given O=C(O)CCCC[C@@H]1CCSS1 , respond with its cell count.
9520

Given CNCc1ccccc1-c1cccs1 , respond with its cell count.
9440

Given CN(C)C(=O)c1cc(-c2cnc(-c3ccccn3)nc2)nc2cc(F)ccc12 , respond with its cell count.
9790

Given CC1(C)CC(=O)c2sc(N3CCOCC3)nc2C1 , respond with its cell count.
8970

Given CCCCC/C=C\C/C=C\C/C=C\C/C=C\CCCC(=O)O[C@@H](CO)COCCCCCCCCCCCCCCCC , respond with its cell count.
5840

Given CCCCCC(=O)CC[C@@H]1[C@@H](C/C=C\CCCC(=O)O)[C@@H](O)C[C@H]1O , respond with its cell count.
5950

Given CCCC(=O)Nc1nc2c(ncn2C2O[C@H]3COP(=O)(O)O[C@@H]3[C@@H]2OC(=O)CCC)c(=O)[nH]1 (stereo partly drawn) , respond with its cell count.
5330

Given CC(C)[C@@H]1NC(=O)[C@H](Cc2ccccc2)NC(=O)[C@@H](CC(=O)O)NC(=O)CNC(=O)[C@H](CCCN=C(N)N)NC1=O , respond with its cell count.
1280
